# system-name: 5-hydroxytryptamine receptor 2B (Homo sapiens)
# Sequence (P41595 whole entry): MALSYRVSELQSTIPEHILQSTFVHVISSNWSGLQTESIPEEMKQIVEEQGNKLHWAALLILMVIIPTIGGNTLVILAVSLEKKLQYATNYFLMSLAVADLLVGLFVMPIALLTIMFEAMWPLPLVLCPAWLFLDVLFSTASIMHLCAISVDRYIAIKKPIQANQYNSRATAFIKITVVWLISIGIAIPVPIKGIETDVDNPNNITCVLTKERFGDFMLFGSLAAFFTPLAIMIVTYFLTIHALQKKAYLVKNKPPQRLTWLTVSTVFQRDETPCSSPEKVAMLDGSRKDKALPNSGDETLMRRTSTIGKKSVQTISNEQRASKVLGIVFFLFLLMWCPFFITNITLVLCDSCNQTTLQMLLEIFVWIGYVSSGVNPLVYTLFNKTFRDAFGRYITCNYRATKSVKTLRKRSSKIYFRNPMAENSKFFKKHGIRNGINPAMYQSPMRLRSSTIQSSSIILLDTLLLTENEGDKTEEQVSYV
# assay-text: Agonist activity at 5-HT2B receptor (unknown origin) expressed in HEK293 cells assessed as [3H]inositol phosphate accumulation after 2 hrs by scintillation counting
pEC50: −log10 of the molar value.
Threshold check on pEC50: at or above 7 gives 1, strictly below gives 0.

[ask] Decide: pEC50 of c1ccc(Oc2cccc3c2CCC2CNCCN32)cc1 (centres undefined) >= 7?
[reply] 0

[ask] Decide: pEC50 of c1cc(C2CCC2)c2c(c1)N1CCNCC1CC2 (centres undefined) >= 7?
[reply] 1

[ask] Decide: pEC50 of c1csc(Cc2cccc3c2CCC2CNCCN32)c1 (centres undefined) >= 7?
[reply] 0

[ask] Decide: pEC50 of CC1(C)CC2CNCCN2c2ccccc21 (centres undefined) >= 7?
[reply] 0

[ask] Decide: pEC50 of c1cc(Cc2ccc3c(c2)OCO3)c2c(c1)N1CCNCC1CC2 (centres undefined) >= 7?
[reply] 0

[ask] Decide: pEC50 of c1ccc(-c2cccc3c2CCC2CNCCN32)cc1 (centres undefined) >= 7?
[reply] 0

[ask] Decide: pEC50 of Cc1cccc2c1CCC1CNCCN21 (centres undefined) >= 7?
[reply] 1

[ask] Decide: pEC50 of Fc1ccc2c(c1Cc1ccccc1)CCC1CNCCN21 (centres undefined) >= 7?
[reply] 0

[ask] Decide: pEC50 of CCCc1ccc2c(c1)N1CCNCC1CC2 (centres undefined) >= 7?
[reply] 0

[ask] Decide: pEC50 of c1cc(CC2CCC2)c2c(c1)N1CCNCC1CC2 (centres undefined) >= 7?
[reply] 0

[ask] Decide: pEC50 of CCCc1ccc2c(c1)CCC1CNCCN21 (centres undefined) >= 7?
[reply] 0

[ask] Decide: pEC50 of c1ccc2c(c1)CC[C@H]1CCNCCCN21 >= 7?
[reply] 0

[ask] Decide: pEC50 of c1ccc(Cc2cccc3c2CCC2CNCCN32)cc1 (centres undefined) >= 7?
[reply] 0

[ask] Decide: pEC50 of Fc1ccc2c(c1Cl)N1CCNCC1CC2 (centres undefined) >= 7?
[reply] 1

[ask] Decide: pEC50 of COc1ccc2c(c1)N1CCCNC[C@H]1CC2 >= 7?
[reply] 0

[ask] Decide: pEC50 of Fc1ccc2c(c1)N1CCNCC1CC2 (centres undefined) >= 7?
[reply] 1

[ask] Decide: pEC50 of COc1cc2c(cc1Cc1ccccc1)CC[C@@H]1CNCCCN21 >= 7?
[reply] 0

[ask] Decide: pEC50 of COc1ccc2c(c1Cl)N1CCCNC[C@H]1CC2 >= 7?
[reply] 1

[ask] Decide: pEC50 of Clc1ccc2c(c1)CCC1CCNCCCN21 (centres undefined) >= 7?
[reply] 0

[ask] Decide: pEC50 of c1ccc2c(c1)CCC1CCNCCCN21 (centres undefined) >= 7?
[reply] 0

[ask] Decide: pEC50 of c1ccc2c(c1)CC[C@@H]1CCNCCCN21 >= 7?
[reply] 0

[ask] Decide: pEC50 of c1cc(CC2CCC2)c2c(c1)N1CCCNCC1CC2 (centres undefined) >= 7?
[reply] 0

* * *

# system-name: 5-hydroxytryptamine receptor 2C (Homo sapiens)
# assay-text: Agonist activity at unedited 5-HT2C receptor (unknown origin) expressed in HEK293 cells assessed as [3H]inositol phosphate accumulation at 10 uM after 2 hrs by scintillation counting relative to serotonin
# Type: functional, cell-based
What Emax was measured for each of the following?
Report the figure in % without appending any unit label.

[ask] Need Emax of c1ccc(Oc2cccc3c2CCC2CNCCN32)cc1 (stereo not drawn) , thanks.
[reply] 112

[ask] Need Emax of CC1(C)CC2CNCCN2c2ccccc21 (stereo not drawn) , thanks.
[reply] 84

[ask] Need Emax of COc1cc2c(cc1Cl)N1CCCNC[C@H]1CC2 , thanks.
[reply] 91

[ask] Need Emax of c1ccc(Cc2cccc3c2CCC2CNCCN32)cc1 (stereo not drawn) , thanks.
[reply] 104

[ask] Need Emax of COc1cccc2c1CC[C@@H]1CNCCCN21 , thanks.
[reply] 92

[ask] Need Emax of COc1cc2c(c(Cl)c1Cl)N1CCCNC[C@H]1CC2 , thanks.
[reply] 80

[ask] Need Emax of Clc1cccc(N2CCNCC2)c1 , thanks.
[reply] 90

[ask] Need Emax of COc1cc2c(cc1Cl)CC[C@@H]1CNCCCN21 , thanks.
[reply] 85

[ask] Need Emax of c1cc(Cc2ccc3c(c2)OCO3)c2c(c1)N1CCNCC1CC2 (stereo not drawn) , thanks.
[reply] 100

[ask] Need Emax of Fc1ccc2c(c1Cc1ccccc1)CCC1CNCCN21 (stereo not drawn) , thanks.
[reply] 102

[ask] Need Emax of Cc1cccc2c1CCC1CNCCN21 (stereo not drawn) , thanks.
[reply] 108

[ask] Need Emax of CCSc1cccc2c1CCC1CNCCN21 (stereo not drawn) , thanks.
[reply] 101

[ask] Need Emax of CCCc1ccc2c(c1)CCC1CNCCN21 (stereo not drawn) , thanks.
[reply] 100

[ask] Need Emax of Fc1ccc2c(c1)N1CCNCC1CC2 (stereo not drawn) , thanks.
[reply] 100

[ask] Need Emax of CCCc1cccc2c1CCC1CNCCN21 (stereo not drawn) , thanks.
[reply] 101

[ask] Need Emax of c1ccc2c(c1)CCC1CCNCCCN21 (stereo not drawn) , thanks.
[reply] 99

[ask] Need Emax of COc1ccc2c(c1)N1CCCNC[C@H]1CC2 , thanks.
[reply] 95

[ask] Need Emax of Clc1ccc2c(c1)CCC1CCNCCCN21 (stereo not drawn) , thanks.
[reply] 83

[ask] Need Emax of Fc1ccc2c(c1Cl)N1CCNCC1CC2 (stereo not drawn) , thanks.
[reply] 94

[ask] Need Emax of c1cc(C2CCC2)c2c(c1)N1CCNCC1CC2 (stereo not drawn) , thanks.
[reply] 110

[ask] Need Emax of c1cc(CC2CCC2)c2c(c1)N1CCCNCC1CC2 (stereo not drawn) , thanks.
[reply] 116

[ask] Need Emax of COc1ccc2c(c1)CC[C@@H]1CNCCCN21 , thanks.
[reply] 80

[ask] Need Emax of CCCc1ccc2c(c1)N1CCNCC1CC2 (stereo not drawn) , thanks.
[reply] 87

[ask] Need Emax of COc1cccc2c1N1CCCNC[C@H]1CC2 , thanks.
[reply] 17

[ask] Need Emax of Fc1ccc2c(c1)CC[C@@H]1CNCCCN21 , thanks.
[reply] 94

[ask] Need Emax of c1ccc(-c2cccc3c2CCC2CNCCN32)cc1 (stereo not drawn) , thanks.
[reply] 97

[ask] Need Emax of c1ccc2c(c1)CC[C@@H]1CCNCCCN21 , thanks.
[reply] 86

[ask] Need Emax of Cc1cccc2c1N1CCNCC1CC2 (stereo not drawn) , thanks.
[reply] 86
